Assignment: determine reported relative viability for the given compounds.
Test system: NCI-H661
Assay: relative viability (nuclei count vs DMSO), 5 days (fraction); higher = more cells survive
Conditions: first compound 2.53 µM
Numbers only.

Reference set (3 entries):
COMPOUND | TARGET_OF_ASSAY | ENDPOINT_VALUE
Cc1cnc(-c2cnc(NCCNc3ccc(C#N)cn3)nc2-c2ccc(Cl)cc2Cl)[nH]1 + CC(=O)c1c(C)c2cnc(Nc3ccc(N4CCNCC4)cn3)nc2n(C2CCCC2)c1=O [Palbociclib] (partner 0.5 µM) | NCI-H661 | 0.506
O=c1[nH]c2ccccc2n1C1CCN(CCCC(c2ccc(F)cc2)c2ccc(F)cc2)CC1 [Pimozide] + C[C@]1(O)C[C@@H](c2nc(-c3ccc4ccc(-c5ccccc5)nc4c3)c3c(N)nccn32)C1 [Linsitinib] (partner 1 µM) | NCI-H661 | 0.513
Cc1cnc(-c2cnc(NCCNc3ccc(C#N)cn3)nc2-c2ccc(Cl)cc2Cl)[nH]1 + Cc1nc(Nc2ncc(C(=O)Nc3c(C)cccc3Cl)s2)cc(N2CCN(CCO)CC2)n1 [Dasatinib] (partner 0.075 µM) | NCI-H661 | 0.794

Exercise: Fill in the blank: the reported relative viability of O=c1[nH]c2ccccc2n1C1CCN(CCCC(c2ccc(F)cc2)c2ccc(F)cc2)CC1 [Pimozide] + CC(=O)Nc1cccc(-n2c(=O)n(C3CC3)c(=O)c3c(Nc4ccc(I)cc4F)n(C)c(=O)c(C)c32)c1 [Trametinib] (partner 0.02 µM) is ____.
Key: 0.492

---

Tested on: NCI-H596
Assay: relative viability (nuclei count vs DMSO), 5 days (fraction); higher = more cells survive
Conditions: first compound 2.53 µM
REPORTED_PROPERTY: relative viability
Numbers only.

Past entries and their recorded results:
MOLECULE | TARGET_OF_ASSAY | ENDPOINT_VALUE
Cc1cnc(-c2cnc(NCCNc3ccc(C#N)cn3)nc2-c2ccc(Cl)cc2Cl)[nH]1 + NC(=O)Nc1cc(-c2cccc(F)c2)sc1C(=O)N[C@H]1CCCNC1 [AZD7762] (partner 0.2 µM) | NCI-H596 | 1.01
O=c1[nH]c2ccccc2n1C1CCN(CCCC(c2ccc(F)cc2)c2ccc(F)cc2)CC1 [Pimozide] + N=C(N)NC(=N)NCCc1ccccc1 [Phenformin] (partner 250 µM) | NCI-H596 | 0.637
O=c1[nH]c2ccccc2n1C1CCN(CCCC(c2ccc(F)cc2)c2ccc(F)cc2)CC1 [Pimozide] + COc1cc2c(Oc3ccc(NC(=O)C4(C(=O)Nc5ccc(F)cc5)CC4)cc3F)ccnc2cc1OCCCN1CCOCC1 [Foretinib] (partner 0.25 µM) | NCI-H596 | 0.78

Provide relative viability values for the following items, in order.
1. Cc1cnc(-c2cnc(NCCNc3ccc(C#N)cn3)nc2-c2ccc(Cl)cc2Cl)[nH]1 + CCNC(=O)c1noc(-c2cc(C(C)C)c(O)cc2O)c1-c1ccc(CN2CCOCC2)cc1 [Luminespib] (partner 0.01 µM)
2. O=c1[nH]c2ccccc2n1C1CCN(CCCC(c2ccc(F)cc2)c2ccc(F)cc2)CC1 [Pimozide] + O=C(c1cc(Cc2n[nH]c(=O)c3ccccc23)ccc1F)N1CCN(C(=O)C2CC2)CC1 [Olaparib] (partner 8 µM)
3. Cc1cnc(-c2cnc(NCCNc3ccc(C#N)cn3)nc2-c2ccc(Cl)cc2Cl)[nH]1 + Nc1ncn([C@H]2C[C@H](O)[C@@H](CO)O2)c(=O)n1 [Decitabine] (partner 2 µM)
4. Cc1cnc(-c2cnc(NCCNc3ccc(C#N)cn3)nc2-c2ccc(Cl)cc2Cl)[nH]1 + Cc1nc(Nc2ncc(C(=O)Nc3c(C)cccc3Cl)s2)cc(N2CCN(CCO)CC2)n1 [Dasatinib] (partner 0.075 µM)

Key:
[1.24, 0.745, 1.07, 0.607]

These data points were gathered from the supplement of paper PMC10307832.
